Test: Thermodynamic aqueous solubility of compound in PBS buffer at pH 7.4 at 37 degreeC measured after 24 hrs by HPLC analysis
Type: physicochemical
Details: read-out: Therm_solubility
endpoint.name: solubility thermodynamic at 24 h

# molecule, solubility thermodynamic at 24 h
records = [
    ("O=C(NCc1ccccc1)c1cn(CC2CCCCC2)c2cc(N3CCOCC3)ccc2c1=O", "< 0.1 µg/mL"),
]

Exercise: Fill in the blank: the reported solubility thermodynamic at 24 h of CCCCn1cc(C(=O)NCc2cccc(CN)c2)c(=O)c2ccc(N3CCOCC3)cc21 is ____.
Key: > 1000 µg/mL

Exercise: Then what about the molecule CCCCn1cc(C(=O)NC23CC(C2)C3)c(=O)c2ccc(N3CCOCC3)cc21 ?
Key: 3.02 µg/mL

Exercise: Let us now turn to CCCCn1cc(C(=O)NCc2ccc(CN)cc2)c(=O)c2c(F)cc(N3CCOCC3)cc21
Key: > 1000 µg/mL

Exercise: Quick one: CCCCn1cc(C(=O)NCc2ccccc2)c(=O)c2cc(F)c(N3CCOCC3)c(Cl)c21
Key: < 0.1 µg/mL

Exercise: Input CCCCn1cc(C(=O)NCc2ccc(CN)cc2)c(=O)c2ccc(N3CCOCC3)cc21
Key: > 1000 µg/mL

Exercise: Try this molecule next: CCCCN1CC(C)(C(=O)NCc2ccccc2)C(=O)c2ccc(N3CCOCC3)cc21 (centres undefined)
Key: 10.4 µg/mL

Exercise: Repeat for the following molecule: O=C(NCc1ccccc1)c1cn(CC2CCC2)c2cc(N3CCOCC3)ccc2c1=O
Key: 1.66 µg/mL

Exercise: Try CCCCn1cc(C(=O)NC2(c3ccccc3)CCCCC2)c(=O)c2c(F)cc(N3CCOCC3)cc21 next.
Key: < 0.1 µg/mL

* * *

Assay: Thermodynamic aqueous solubility of compound in PBS buffer at pH 7.4 at 37 degreeC measured after 24 hrs by HPLC analysis
Assay type: physicochemical
Settings: read-out: Therm_solubility
endpoint.name: solubility thermodynamic at 24 h (µg/mL)
Reply with just the number (in µg/mL).

Example entries begin here.
# query.smiles, solubility thermodynamic at 24 h, µg/mL
measured = [
    ("O=C(NCc1ccccc1)c1cn(CC2CC2)c2cc(N3CCOCC3)ccc2c1=O", 5.81),
    ("O=C(NCc1ccccc1)c1cn(C23CC(C2)C3)c2cc(N3CCOCC3)ccc2c1=O", 4.06),
]

# next compound below
Exercise: Using the record for CCCCn1cc(C(=O)NCc2ccccc2)c(=O)c2ccc(NCCOCCOCCOC)cc21 , report its solubility thermodynamic at 24 h.
Key: 41

* * *

solubility thermodynamic at 24 h overview
Experiment: Thermodynamic aqueous solubility of compound in PBS buffer at pH 7.4 at 37 degreeC measured after 24 hrs by HPLC analysis
Type: physicochemical
Conditions: read-out: Therm_solubility
Write the answer as a number in µg/mL, unit excluded.

# query.smiles, endpoint.name, reported.measurement
measured = [
    ("CCCCn1cc(C(=O)NCc2ccccc2)c(=O)c2ccc(N3CCCN(C)CC3)cc21", "solubility thermodynamic at 24 h", 20.9),
]

Exercise: Name the reported solubility thermodynamic at 24 h value associated with the compound CCCCn1cc(C(=O)NCc2ccccc2)c(=O)c2ccc(N3CCC(OCCOCCOCCOC)CC3)cc21
Key: 86.9

* * *

Test: Octanol/water partition coefficient, log P of the compound by LC-MS analysis
Format: physicochemical
Conditions: read-out: logP
logP vs 4: less than gives 1 (yes); not less than gives 0 (no).

# query.smiles, label
data = [
    ("CCCCn1cc(C(=O)NCc2ccc(CN)cc2)c(=O)c2cc(F)c(N3CCOCC3)cc21", "1 (yes)"),
    ("CCCCn1cc(C(=O)NC23CC(C2)C3)c(=O)c2ccc(N3CCOCC3)cc21", "1 (yes)"),
    ("CCCCn1cc(C(=O)NC2(c3ccccc3)CCS(=O)(=O)CC2)c(=O)c2ccc(N3CCOCC3)cc21", "1 (yes)"),
    ("CCCCn1cc(C(=O)NCc2ccc(CN)cc2)c(=O)c2c(F)cc(N3CCOCC3)cc21", "1 (yes)"),
    ("O=C(NCc1ccccc1)c1cn(CC2CCC2)c2cc(N3CCOCC3)ccc2c1=O", "1 (yes)"),
]

Exercise: Dear colleague, could you confirm whether logP of CCCCn1cc(C(=O)NC2(c3ccccc3)CC2)c(=O)c2c(F)cc(N3CCOCC3)cc21 falls below 4? Thanks.
Key: 1 (yes)

Exercise: Input CCCCn1cc(C(=O)NC2(c3ccccc3)CC2)c(=O)c2cc(F)c(N3CCOCC3)c(F)c21
Key: 0 (no)

Exercise: Now the same for CCCCn1cc(C(=O)NCc2cccc(CN)c2)c(=O)c2ccc(N3CCOCC3)cc21
Key: 1 (yes)

Exercise: Also O=C(NCc1ccccc1)c1cn(C23CC(C2)C3)c2cc(N3CCOCC3)ccc2c1=O ?
Key: 0 (no)

Exercise: Same question, CCCCn1cc(C(=O)NCc2ccc(CN)cc2)c(=O)c2ccc(N3CCOCC3)cc21 this time
Key: 1 (yes)

Exercise: What would you report for CCCCn1cc(C(=O)NC2(c3ccccc3)CC2)c(=O)c2cc(F)c(N3CCOCC3)cc21 ?
Key: 0 (no)

Exercise: Let us now turn to CCCCn1cc(C(=O)NCc2ccccc2)c(=O)c2cc(OCC)c(N3CCOCC3)c(OCC)c21
Key: 0 (no)

* * *

Assay: Octanol/water partition coefficient, log P of the compound by LC-MS analysis
Format: physicochemical
Settings: read-out: logP
With a cut-off of 5, any logP strictly below it is called true (1); any logP meeting it or above is called false (0).

Example entries and their recorded answers appear below.
# query.smiles, label
records = [
    ("CCCCn1cc(C(=O)NC2(c3ccccc3)CCCC2)c(=O)c2cc(F)c(N3CCOCC3)cc21", "false (0)"),
    ("CCCCn1cc(C(=O)NCc2ccccc2)c(=O)c2c(F)cc(N3CCOCC3)cc21", "true (1)"),
    ("CCCCn1cc(C(=O)NCc2ccccc2)c(=O)c2ccc(NCCOCCOCCOC)cc21", "true (1)"),
    ("CCCCn1cc(C(=O)NC2(c3ccccc3)CCCCC2)c(=O)c2cc(F)c(N3CCOCC3)cc21", "false (0)"),
]

Exercise: Record CCCCn1cc(C(=O)NCc2cccc(C#N)c2)c(=O)c2c(F)cc(N3CCOCC3)cc21 : is its logP strictly below 5?
Key: true (1)

Exercise: Same question for O=C(NCc1ccccc1)c1cn(CC2CCCCC2)c2cc(N3CCOCC3)ccc2c1=O please.
Key: true (1)

Exercise: Would you kindly repeat that for CCCCn1cc(C(=O)NCc2cccc(CN)c2)c(=O)c2cc(F)c(N3CCOCC3)cc21 ?
Key: true (1)

Exercise: Please give the result for CCCCn1cc(C(=O)NC2(c3ccccc3)CCOCC2)c(=O)c2ccc(N3CCOCC3)cc21 too.
Key: true (1)

Exercise: Same thing, different compound: CCCCn1cc(C(=O)NCc2ccc(C#N)cc2)c(=O)c2c(F)cc(N3CCOCC3)cc21
Key: true (1)

Exercise: CCCCn1cc(C(=O)NCc2ccccc2)c(=O)c2ccc(N3CCCN(C)CC3)cc21 , same question.
Key: true (1)

* * *

Assay: Thermodynamic aqueous solubility of compound in PBS buffer at pH 7.4 at 37 degreeC measured after 24 hrs by HPLC analysis
Format: physicochemical
Details: read-out: Therm_solubility
endpoint.name: solubility thermodynamic at 24 h (µg/mL)
Entry rule: numbers only, all in µg/mL.

# query.smiles, solubility thermodynamic at 24 h (µg/mL)
measured = [
    ("CCCCn1cc(C(=O)NCc2ccc(C#N)cc2)c(=O)c2c(F)cc(N3CCOCC3)cc21", 0.88),
    ("CCCCn1cc(C(=O)NC2(c3ccccc3)CCS(=O)(=O)CC2)c(=O)c2ccc(N3CCOCC3)cc21", 3.35),
    ("CCCCn1cc(C(=O)NCc2cccc(C#N)c2)c(=O)c2c(F)cc(N3CCOCC3)cc21", 0.24),
    ("CCCCn1cc(C(=O)NC2(c3ccccc3)CCOCC2)c(=O)c2ccc(N3CCOCC3)cc21", 1.03),
    ("CCCCn1cc(C(=O)NC2(c3ccccc3)CC2)c(=O)c2cc(F)c(N3CCOCC3)c(F)c21", 0.23),
]

Okay, now this molecule:
Exercise: Recorded solubility thermodynamic at 24 h for CCCCn1cc(C(=O)NCc2ccccc2)c(=O)c2ccc(OCCOCCOCCOC)cc21 , please?
Key: 93

* * *

Experiment: Thermodynamic aqueous solubility of compound in PBS buffer at pH 7.4 at 37 degreeC measured after 24 hrs by HPLC analysis
Format: physicochemical
Conditions: read-out: Therm_solubility
In this section we review reported solubility thermodynamic at 24 h values for a set of compounds.

For orientation, consider the following solved cases.
# query.smiles, reported.measurement
rows = [
    ("CCCCn1cc(C(=O)NCc2cccc(CN)c2)c(=O)c2cc(F)c(N3CCOCC3)cc21", "> 1000 µg/mL"),
    ("CCCCn1cc(C(=O)NC2(c3ccccc3)CC2)c(=O)c2cc(F)c(N3CCOCC3)cc21", "< 0.1 µg/mL"),
]

Pending compound:
Exercise: // query solubility thermodynamic at 24 h value for entry CCCCn1cc(C(=O)NC2(c3ccccc3)CCCCC2)c(=O)c2cc(F)c(N3CCOCC3)cc21
Key: < 0.1 µg/mL
